System: M. tuberculosis clinical strain 13908
Experiment: MIC by microplate alamarBlue assay (MABA)
Assay type: cell-based, Mycobacterium tuberculosis
Settings: Mycobacterium tuberculosis; strain 13908: resistant to INH RFP EMB 1321 PAS OFX LFX
Measured Property: MIC
Output should be the measured figure followed by the unit it is expressed in.

Examples with their reported MIC follow.
CO[C@H]1/C=C/O[C@@]2(C)Oc3c(C)c(O)c4c(O)c(c(/C=N/N5CCN(C)CC5)c(O)c4c3C2=O)NC(=O)/C(C)=C\C=C\[C@H](C)[C@H](O)[C@@H](C)[C@@H](O)[C@@H](C)[C@H](OC(C)=O)[C@@H]1C ... 6.9 µg/mL
COc1nc2ccc(Br)cc2cc1[C@@H](c1ccccc1)[C@@](O)(CCN(C)C)c1cccc2ccccc12 ... 0.266 µg/mL
NNC(=O)c1ccncc1 ... 3.01 µg/mL

# input for lookup
Query :: Form field: reported MIC of "COc1ncc(-c2ccc(Cl)cc2)cc1[C@@H](c1ccccc1)[C@@](O)(CCN(C)C)c1cccc2ccccc12"
Result :: 0.849 µg/mL
